- target_of_assay: Phosphatidylinositol 4,5-bisphosphate 3-kinase catalytic subunit delta isoform (Homo sapiens)
- Sequence (O00329 whole entry, canonical isoform): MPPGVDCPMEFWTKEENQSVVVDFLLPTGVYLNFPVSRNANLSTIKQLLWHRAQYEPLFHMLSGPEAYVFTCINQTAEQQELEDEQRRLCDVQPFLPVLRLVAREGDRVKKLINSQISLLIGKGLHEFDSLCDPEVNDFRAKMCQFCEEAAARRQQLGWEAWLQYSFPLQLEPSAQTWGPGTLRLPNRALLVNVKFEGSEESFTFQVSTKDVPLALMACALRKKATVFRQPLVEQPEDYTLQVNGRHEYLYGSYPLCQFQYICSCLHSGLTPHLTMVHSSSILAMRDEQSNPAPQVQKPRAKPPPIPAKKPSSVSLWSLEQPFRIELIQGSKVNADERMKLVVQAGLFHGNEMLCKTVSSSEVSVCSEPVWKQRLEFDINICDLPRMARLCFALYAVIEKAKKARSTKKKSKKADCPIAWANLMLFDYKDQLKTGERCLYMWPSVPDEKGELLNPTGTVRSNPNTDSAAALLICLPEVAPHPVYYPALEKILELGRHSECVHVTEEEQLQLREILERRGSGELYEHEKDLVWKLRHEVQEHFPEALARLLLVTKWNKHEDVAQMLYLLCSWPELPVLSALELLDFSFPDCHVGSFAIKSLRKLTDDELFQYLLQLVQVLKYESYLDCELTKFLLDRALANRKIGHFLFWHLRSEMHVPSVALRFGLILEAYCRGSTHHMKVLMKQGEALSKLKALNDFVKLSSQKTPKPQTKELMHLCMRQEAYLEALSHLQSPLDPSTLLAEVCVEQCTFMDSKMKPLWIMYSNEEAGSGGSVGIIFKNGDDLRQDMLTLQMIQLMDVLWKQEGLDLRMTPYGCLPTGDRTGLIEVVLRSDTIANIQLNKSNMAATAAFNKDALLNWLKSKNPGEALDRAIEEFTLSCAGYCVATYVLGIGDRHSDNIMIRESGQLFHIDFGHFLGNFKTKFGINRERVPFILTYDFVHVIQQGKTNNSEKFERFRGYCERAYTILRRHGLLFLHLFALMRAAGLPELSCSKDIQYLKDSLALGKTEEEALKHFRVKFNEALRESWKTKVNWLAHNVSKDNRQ
- protocol_details: PI3K Delta Assay: In some embodiments, the PI3Kδ inhibitor is selective. By ¿selective¿ is meant that the compound binds to or inhibits a kinase with greater affinity or potency, respectively, compared to at least one other kinase. In some embodiments, the PI3Kδ inhibitors are selective inhibitors of PI3Kδ (e.g., over PI3Kα, PI3Kβ and PI3Kγ). In some embodiments, selectivity can be at least about 2-fold, 5-fold, 10-fold, at least about 20-fold, at least about 50-fold, at least about 100-fold, at least about 200-fold, at least about 500-fold or at least about 1000-fold. Selectivity can be measured by methods routine in the art. In some embodiments, selectivity can be tested at the Km ATP concentration of each enzyme. In some embodiments, the selectivity of compounds described herein can be determined by cellular assays associated with particular PI3K kinase activity.
measured_quantity: IC50

*Q* Which measured IC50 value corresponds to CCOc1c(C(C)n2nc(C)c3c(N)ncnc32)cc(C)c(C#N)c1-c1ccc(C(=O)N(C)C)nc1 (stereo unspecified) ?
*A* < 50 nM
